// data source = patent EP4549424A1

protocol: Liquid-liquid extraction from aqueous lithium-containing solution, ICP detection: potassium;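 note: analysis by ICP optical emission spectrometry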
details: feed B3 (cLi 0.937, cNa 119.10, cK 43.03 g/L, pH 9.60); organic phase and phase ratio per example
reported_metric: cK, remaining aqueous phase R1 (g/L)

* CC1=NN(c2ccccc2)C(=O)C1C(=O)c1ccccc1 (stereo not drawn) [Comparative Example 7, 1-phenyl-3-methyl-4-benzoyl-5-pyrazolone, reference compound] | 42.96
* O=C(CC(=O)c1ccccc1)c1ccccc1 [Comparative Example 3, 1,3-diphenyl-1,3-propanedione, reference compound] | 43.21
* CCCCCCCCCCCCCCCCCC(=O)CC(=O)c1ccccc1 [Comparative Example 5, stearoylbenzoylmethane, reference compound] | 41.03
* Cc1ccc(C(=O)CC(=O)C(F)(F)F)cc1 [Comparative Example 6, reference compound] | 42.11
* CC(=O)CC(=O)c1ccccc1 [Comparative Example 1, benzoyl acetone, reference compound] | 41.79
* CCCCCCCCCCOc1ccc(C(=O)c2ccccc2)c(O)c1 [Example 11, 4-decyloxy-2-hydroxydibenzophenone] | 42.65
